target: Wild Type PPO Enzyme (Amaranthus PPO2, SEQ ID NO: 1) (Amaranthus tuberculatus); test: PPO enzyme assay (recombinant), wild type
Sequence (Q0NZW9 1-534): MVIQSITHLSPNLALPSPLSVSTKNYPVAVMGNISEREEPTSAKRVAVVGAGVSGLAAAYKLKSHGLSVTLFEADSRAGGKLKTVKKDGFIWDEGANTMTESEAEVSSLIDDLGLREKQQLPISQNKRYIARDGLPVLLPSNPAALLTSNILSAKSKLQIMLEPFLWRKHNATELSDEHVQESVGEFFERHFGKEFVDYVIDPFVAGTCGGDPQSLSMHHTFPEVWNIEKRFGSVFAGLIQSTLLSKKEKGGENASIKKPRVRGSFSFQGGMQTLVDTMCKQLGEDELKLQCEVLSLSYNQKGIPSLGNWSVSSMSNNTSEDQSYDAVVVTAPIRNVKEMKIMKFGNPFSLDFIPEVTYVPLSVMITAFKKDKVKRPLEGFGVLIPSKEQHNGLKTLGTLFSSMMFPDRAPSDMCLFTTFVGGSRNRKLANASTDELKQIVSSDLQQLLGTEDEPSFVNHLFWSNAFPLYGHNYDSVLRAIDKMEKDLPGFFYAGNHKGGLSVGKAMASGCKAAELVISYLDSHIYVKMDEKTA
# Lookup of reported IC50 keyed by entry

Answered examples (4):
> print(dat)
                               query.smiles                                       tgt  measured.property       val
1  Cn1c(C(F)(F)F)cc(=O)n(-c2nc(Oc3cccnc3OCC(=O)OCC(F)F)c(Cl)cc2F)c1=O  Wild Type PPO Enzyme (Amaranthus PPO2, SEQ ID NO: 1) (Amaranthus tuberculatus)               IC50  0.175 nM
2  C=CCOC(=O)COc1ncccc1Oc1nc(-n2c(=O)cc(C(F)(F)F)n(C)c2=O)c(F)cc1Cl  Wild Type PPO Enzyme (Amaranthus PPO2, SEQ ID NO: 1) (Amaranthus tuberculatus)               IC50  0.218 nM
3  CCOC(=O)COC(=O)COc1ncccc1Oc1nc(-n2c(=O)cc(C(F)(F)F)n(C)c2=O)c(F)cc1Cl  Wild Type PPO Enzyme (Amaranthus PPO2, SEQ ID NO: 1) (Amaranthus tuberculatus)               IC50  0.154 nM
4  CCOC(=O)COc1ncccc1Oc1nc(-n2c(=O)cc(C(F)(F)F)n(C)c2=O)c(F)cc1Cl  Wild Type PPO Enzyme (Amaranthus PPO2, SEQ ID NO: 1) (Amaranthus tuberculatus)               IC50  0.187 nM

Consider COCCOC(=O)COc1ncccc1Oc1nc(-n2c(=O)cc(C(F)(F)F)n(C)c2=O)c(F)cc1Cl . Its measured IC50 is 0.248 nM

Consider CCOC(=O)COc1ccccc1Oc1nc(-n2c(=O)cc(C(F)(F)F)n(C)c2=O)c(F)cc1F . Its measured IC50 is 0.496 nM

Consider CCOC(=O)COc1ncccc1Oc1cc(-n2c(=O)cc(C(F)(F)F)n(C)c2=O)c(F)cc1Cl . Its measured IC50 is 0.177 nM

Consider Cn1c(C(F)(F)F)cc(=O)n(-c2nc(Oc3cccnc3OCC(=O)OCC3CC3)c(Cl)cc2F)c1=O . Its measured IC50 is 0.22 nM

Consider CCOC(=O)COc1ccccc1Oc1nc(-n2c(=O)c(C)c(C(F)(F)F)n(C)c2=O)c(F)cc1Cl . Its measured IC50 is 0.212 nM
